System: ACHN renal
Assay: NCI-60 one-dose screen, 48 h (100 = growth as untreated, 0 = no growth, -100 = all killed)
Details: 10 µM unless noted
Compounds without any hit were thinned out: in the full panel of roughly 83,000, 20% have a hit.
Please go through the items and note down their growth.
Unit % implied. Number only.

Prompt: Bench note: what growth did `Cc1cc2nc3c4cc(C#N)ccc4n(CCN(C)C)c3nc2cc1C` show?
Completion: -13.7

Prompt: // query growth value for entry `O=c1oc2ccc(-c3ccc(F)cc3F)cc2c(=O)n1-c1ccc(Br)cc1F`
Completion: 80.5

Prompt: // query growth value for entry `CC[C@H](CC[C@@H](C)[C@H]1CC[C@H]2[C@@H]3CC(=O)C4=CC(=O)/C(=C/c5ccc([N+](=O)[O-])cc5)C[C@]4(C)[C@H]3CC[C@]12C)C(C)C`
Completion: 93.9

Prompt: Look up growth: `CC(=O)/C(N=Nc1ccc2oc(=O)ccc2c1)=C(\C)O`
Completion: 18.2

Prompt: Which growth value belongs to `NS(=O)(=O)c1nnc(/N=C/c2c(O)[nH]c3ccccc23)s1` ?
Completion: 93.7
